Measured values drawn from paper PMC9886983 for this set.

Reported values of Kd for individual entries
MEASUREMENT_TARGET: T1, Cagβ-AAD1 (all-alpha domain of Cagβ, residues 289–488) (Helicobacter pylori 26695, UniProt O25260 289-488)
T1 construct: Cagβ (HP0524, Cag5) of H. pylori 26695, residues 289-488, holding the all-alpha domain (AAD); source: E. coli BL21 star (DE3), purified (Ni-NTA, TEV cleavage, second Ni-NTA, SEC); not shown: His6, N-terminal, cleaved; TrxA, N-terminal, cleaved
T1 sequence: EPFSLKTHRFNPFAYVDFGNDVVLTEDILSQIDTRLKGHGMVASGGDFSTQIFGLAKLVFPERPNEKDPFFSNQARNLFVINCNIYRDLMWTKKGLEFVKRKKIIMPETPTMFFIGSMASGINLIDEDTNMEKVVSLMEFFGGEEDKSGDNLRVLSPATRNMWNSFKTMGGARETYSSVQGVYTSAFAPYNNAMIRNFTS
RUN_DESCRIPTION: ITC; ITC-200 at 25 °C; 20 mM Tris pH 8.0, 150 mM NaCl; Cagβ proteins (20 µM) in the cell, CagZ proteins or peptides (200 µM) in the syringe
RECORDED_CONDITIONS: both partners purified

Example cases with answers are listed next.
BINDER	Kd
SKNKTYLTSLERAKLITQLK (CagZ of H. pylori, C-terminal tail, residues 176-195; source: synthetic peptide (Genscript)) [CagZ-20 (peptide of the CagZ C-terminal tail, residues 176–195)]	42000 nM
SKNKTYLTSLERAKLITQLKLNLE (CagZ of H. pylori, C-terminal tail, residues 176-199; source: synthetic peptide (Genscript)) [CagZ-24 (peptide of the CagZ C-terminal tail, residues 176–199)]	330 nM

# next binder below
Quick one: Kd for CagZ (residues 2–199), expressed separately from pET-32a (natural protein, CagZ of H. pylori 26695, residues 2-199; also called WT; full-length CagZ; source: E. coli BL21 star (DE3), purified (Ni-NTA, TEV cleavage, second Ni-NTA, SEC); not shown: His6, N-terminal, cleaved; TrxA, N-terminal, cleaved) ELGFNEAERQKILDSNSSLMGNANEVRDKFIQNYASSLKDSNDPQDFLRRVQELRINMQKNFISFDVYYNYLNNLVLASYNRCKQEKTFAESTIKNELTLGEFVAEISDNFNNFMCDEVARISDLVASYLPREYLPPFIDGNMMGVAFQILGIDDFGRKLNEIVQDIGTKYIILSKNKTYLTSLERAKLITQLKLNLE ?
90 nM
